Sourced from ChEMBL document CHEMBL5120933

Biological target: Protein cereblon/Bromodomain-containing protein 4 (Homo sapiens, UniProt O60885+Q96SW2)
Sequence (Q96SW2 whole entry, looked up, other chains not shown): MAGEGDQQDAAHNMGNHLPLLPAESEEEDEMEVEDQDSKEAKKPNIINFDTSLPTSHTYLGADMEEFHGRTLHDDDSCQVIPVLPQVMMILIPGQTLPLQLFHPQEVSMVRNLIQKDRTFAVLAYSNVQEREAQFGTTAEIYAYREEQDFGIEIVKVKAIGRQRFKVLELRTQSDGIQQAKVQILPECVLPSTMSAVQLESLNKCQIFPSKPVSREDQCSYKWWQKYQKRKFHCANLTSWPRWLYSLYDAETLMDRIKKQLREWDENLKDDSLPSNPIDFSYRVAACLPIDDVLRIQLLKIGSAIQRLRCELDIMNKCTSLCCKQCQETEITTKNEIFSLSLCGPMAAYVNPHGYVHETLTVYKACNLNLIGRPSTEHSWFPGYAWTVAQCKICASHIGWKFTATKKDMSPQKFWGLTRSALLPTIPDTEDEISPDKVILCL
Test: PROTAC activity at […]/BRD4 in human HEK293T cells assessed as degradation of BRD4 incubated for 24 hrs by HiBiT assay
Assay type: cell-based
Record form. Attribute: DC50. Fill in for each entry.

Below are worked cases with known answers.
Cc1sc2c(c1C)C(c1ccc(Cl)cc1)=N[C@@H](CC(=O)N1CCN(CCN(C)C(=O)COc3cccc4c3C(=O)N(C3CCC(=O)NC3=O)C4=O)CC1)c1nnc(C)n1-2 (stereo partly drawn) = 241 nM
Cc1ccc(C(=O)NCCOCCN(C)C(=O)C[C@@H]2N=C(c3ccc(Cl)cc3)c3c(sc(C)c3C)-n3c(C)nnc32)cc1N1CCC(=O)NC1=O = 23 nM

Consider now this further compound.
Measured DC50, Cc1sc2c(c1C)C(c1ccc(Cl)cc1)=N[C@@H](CC(=O)ON1C(=O)CCC1=O)c1nnc(C)n1-2 : > 50000 nM
